# target or test system: T1, EsCas13d, nuclease-dead (Eubacterium siraeum, UniProt B0MS50, R295A;H300A;R849A;H854A)
# T1 sequence: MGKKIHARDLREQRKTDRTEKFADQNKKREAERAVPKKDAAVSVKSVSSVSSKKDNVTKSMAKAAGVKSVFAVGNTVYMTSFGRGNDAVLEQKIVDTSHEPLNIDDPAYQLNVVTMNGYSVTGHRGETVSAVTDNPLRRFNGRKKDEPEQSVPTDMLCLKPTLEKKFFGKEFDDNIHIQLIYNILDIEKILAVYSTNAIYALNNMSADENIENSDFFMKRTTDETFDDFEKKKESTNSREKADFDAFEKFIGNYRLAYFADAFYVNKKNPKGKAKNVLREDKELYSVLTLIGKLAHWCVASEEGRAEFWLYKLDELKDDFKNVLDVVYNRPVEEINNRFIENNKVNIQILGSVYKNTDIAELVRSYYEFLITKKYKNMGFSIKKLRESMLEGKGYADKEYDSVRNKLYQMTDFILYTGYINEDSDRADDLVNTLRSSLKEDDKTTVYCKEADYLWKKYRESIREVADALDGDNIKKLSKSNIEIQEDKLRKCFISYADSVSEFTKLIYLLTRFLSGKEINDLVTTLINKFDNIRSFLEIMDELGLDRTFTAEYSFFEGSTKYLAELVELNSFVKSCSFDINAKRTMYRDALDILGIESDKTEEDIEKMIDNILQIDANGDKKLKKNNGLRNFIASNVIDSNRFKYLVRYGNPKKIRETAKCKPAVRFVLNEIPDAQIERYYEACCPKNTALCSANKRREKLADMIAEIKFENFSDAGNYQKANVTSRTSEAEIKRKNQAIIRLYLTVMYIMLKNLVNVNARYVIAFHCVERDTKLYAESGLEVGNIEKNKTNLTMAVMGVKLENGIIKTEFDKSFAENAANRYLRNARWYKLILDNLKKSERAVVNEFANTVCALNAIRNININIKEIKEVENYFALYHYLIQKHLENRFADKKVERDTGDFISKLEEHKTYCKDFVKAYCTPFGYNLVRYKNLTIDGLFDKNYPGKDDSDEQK
# experimental protocol: crRNA (strand 1, pre-loaded); Mg2+; 40 mM Tris-HCl pH 7.5, 150 mM NaCl, 6 mM MgCl2, 1 mM DTT, 0.1% Tween-20, 0.2 mg/ml BSA; 25 C; 10 min per concentration, then washed
# assay conditions: tags: His6-TwinStrep-SUMO cleaved; N-terminal SNAP kept (SNAP-Surface 488); label: 3' end held by stalled T7 RNA polymerase
metric: Kd (nM)
Write down the numeric answer in nM and omit the unit.

Example cases with answers are listed next.
target 1 complement block 6-9 (mixed) RNA 1: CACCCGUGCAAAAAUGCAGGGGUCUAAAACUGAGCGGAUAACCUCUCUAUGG RNA 2: GGGAAUGGAUCCACAUCUACGAAUUCGUACCAUAGAGAGGUUUAGGGCUCACCGAGAUCGGAAGAGCACACGU; 7.7
target 1 insA 3' of 17,insU 3' of 13 (mixed) RNA 1: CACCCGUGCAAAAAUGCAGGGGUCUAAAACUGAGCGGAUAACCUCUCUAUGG RNA 2: GGGAAUGGAUCCACAUCUACGAAUUCGUACCAUAGAAGAGUGUUAUCCGCUCACCGAGAUCGGAAGAGCACACGU; 22
target 1 A1U,U19A (mixed) RNA 1: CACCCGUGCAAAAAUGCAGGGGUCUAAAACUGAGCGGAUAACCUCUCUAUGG RNA 2: GGGAAUGGAUCCACAUCUACGAAUUCGUACCAAAGAGAGGUUAUCCGCUCUCCGAGAUCGGAAGAGCACACGU; 29

// query Can you share its Kd? I mean this binder: target 1 A1G,U8G (mixed) RNA 1: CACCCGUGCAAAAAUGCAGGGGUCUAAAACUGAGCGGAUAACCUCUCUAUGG RNA 2: GGGAAUGGAUCCACAUCUACGAAUUCGUACCAUAGAGAGGUUAGCCGCUCGCCGAGAUCGGAAGAGCACACGU
// result 24.5

// query What does the record list as Kd for target 1 MT 5'PFS GAA 3'PFS ACU (mixed) RNA 1: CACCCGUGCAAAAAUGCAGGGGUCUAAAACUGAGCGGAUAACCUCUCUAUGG RNA 2: GGGAAUGGAUCCACAUCUACGAAUUCGAACCAUAGAGAGGUUAUCCGCUCAACUAGAUCGGAAGAGCACACGU ?
// result 34

// query Which Kd is reported for this binder? target 2 MT 5'PFS ACA 3'PFS ACA (mixed) RNA 1: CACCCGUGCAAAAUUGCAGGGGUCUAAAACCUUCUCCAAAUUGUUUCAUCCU RNA 2: GGGAAUGGAUCCACAUCUACGAAUUCACAAGGAUGAAACAAUUUGGAGAAGACAAGAUCGGAAGAGCACACGU
// result 7.2

// query Tell me the measured Kd of target 1 A1C,C7G (mixed) RNA 1: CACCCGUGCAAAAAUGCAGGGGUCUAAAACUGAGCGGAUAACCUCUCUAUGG RNA 2: GGGAAUGGAUCCACAUCUACGAAUUCGUACCAUAGAGAGGUUAUGCGCUCCCCGAGAUCGGAAGAGCACACGU , please.
// result 8.8

// query Could you share which Kd value was measured for target 1 MT 5'PFS UUA 3'PFS UAC (mixed) RNA 1: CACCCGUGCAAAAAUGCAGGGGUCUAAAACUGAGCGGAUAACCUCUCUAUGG RNA 2: GGGAAUGGAUCCACAUCUACGAAUUCUUACCAUAGAGAGGUUAUCCGCUCAUACAGAUCGGAAGAGCACACGU ?
// result 35
